experiment: plasmodial surface anion channel blockers, osmotic lysis – cell-based, P. falciparum Indochina, OD700, 2 h, primary screen (AID 1155);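 also: lysis reports solute entry through the parasite surface anion channel PSAC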; conditions: P. falciparum Indochina infected erythrocytes, higher = more signal, called active from +8 up or from −8 down
Readout Label: z-score

# Compound, Assay Result
rows = [
    ("C#CCOC(=O)N[C@H](C=CCCCC)c1ccccc1", 0.852),
    ("CN(C)C(=O)[C@@]1(CCS(=O)(=O)c2ccccc2)N=C(c2ccc(OCCCO)cc2)O[C@H]1c1ccccc1CN=[N+]=[N-]", 4.2),
    ("CC(C)C[C@H]1NC(=O)[C@H](C)NC(=O)[C@@]23C(=O)N[C@@H](Cc4ccccc4)C2[C@H](C)[C@@]2(C)O[C@H]2C3/C=C/C/C=C\\CNC1=O (stereo not given in full)", -0.169),
    ("[N-]=[N+]=NCc1ccccc1[C@H]1OC(c2ccc(OCCCO)cc2)=N[C@@]1(Cc1ccccc1)C(N)=O", 15.2),
    ("O=C1O[C@H](c2ccccc2)[C@H](c2ccccc2)N2[C@H]1[C@@H](C(=O)N1CCCCCCC1)[C@]1(C(=O)Nc3ccc(C#CCCO)cc31)[C@H]2c1ccc(OCCO)cc1", 2.04),
    ("NC(=O)[C@@H]1[C@H]2C(=O)O[C@H](c3ccccc3)[C@H](c3ccccc3)N2[C@H](c2ccccc2OCCO)[C@@]12C(=O)Nc1ccc(C#CCCO)cc12", 0.966),
    ("CO[C@H]1O[C@H](CO)[C@@H](OC(=O)Nc2ccc(C(F)(F)F)cc2)[C@H](OC(=O)Nc2ccccc2)[C@H]1OC(=O)Nc1ccccc1", 1.22),
    ("C[N+](C)(C)CCCC[C@@H]1NC(=O)[C@@H]2C[C@H](C(=O)O)[C@H](c3cccc(OCCO)c3)N2C1=O", 0.157),
    ("COC(=O)[C@@]1(Cc2ccccc2)[C@H]2c3cc(C(=O)N(C)C)n(Cc4ccccn4)c3C[C@H]2CN1C(=O)c1ccccc1", 0.458),
    ("O=C(NCc1ccccc1)[C@]1(Cc2ccccc2)N=C(c2ccc(OCCCO)cc2)O[C@@H]1c1ccccc1", 22.5),
    ("CC(C)CCC[C@@H](C)[C@H]1CC[C@@]2(C)C3=C(CC[C@]12C)[C@@]1(C)CC[C@H](OC(=O)C(C)(C)C)C(C)(C)C1CC3 (stereo not given in full)", -0.698),
    ("COCCCNC(=O)[C@@]1(Cc2ccccc2I)c2ccccc2C(=O)N(Cc2ccccc2Cl)[C@H]1c1ccc(CO)cc1", 0.303),
    ("C#CCNS(=O)(=O)N(C)C", 0.262),
    ("CCCCC(=C=CC[C@H](O)c1ccccc1OCCO)C[C@H](O)c1ccccn1", 1.16),
    ("COC(=O)[C@@]1(Cc2ccccc2)[C@H]2c3cc(C(=O)N4CCCC4)n(Cc4ccc(OC(F)(F)F)cc4)c3C[C@H]2CN1C(=O)c1ccccc1", 1.2),
    ("COc1ccc([Si](C)(C)[C@@H]2[C@@H](CC(=O)N3Cc4ccccc4C[C@H]3CO)O[C@]3(C(=O)N(Cc4cccc(N5CCCCC5=O)c4)c4ccccc43)[C@H]2C)cc1", 1.27),
    ("CCCCCCC#C[Si](O[C@H](c1ccccc1)c1cn(Cc2cccc(Cl)c2)nn1)(C(C)C)C(C)C", 0.886),
    ("CCOC(=O)C1=CC[C@@H](c2ccccc2)N(S(=O)(=O)c2ccc(C)cc2)[C@H]1C=C(C)C", 1.42),
    ("O=C1OCC=C[C@H]2OC34C=CCN(CCN5CCOCC5)C(=O)[C@H]3N(CCCCCO)C(=O)[C@@H]4[C@@H]12 (stereo not given in full)", 0.526),
    ("COC(=O)[C@]1(Cc2ccccc2N=[N+]=[N-])N=C(c2ccc(OCCCO)cc2)O[C@@H]1c1ccccc1", 27.2),
    ("C[C@H]1NC(=O)C([C@@H](C)OCc2ccccc2)NC(=O)[C@@]23C(=O)N[C@@H](Cc4ccccc4)C2[C@H](C)[C@@]2(C)O[C@H]2C3/C=C/CC/C=C/CNC1=O (stereo not given in full)", 0.76),
    ("COc1ccc(C#Cc2ccc3c(c2)[C@]2(C(=O)N3)[C@H](C(=O)O)[C@H]3C(=O)O[C@H](c4ccccc4)[C@H](c4ccccc4)N3[C@@H]2c2ccc(OCCO)cc2)cc1", -0.266),
    ("O=C1NC(=O)C2C1C=CC(C(O)c1ccc3c(c1)OCO3)N2Nc1ccc(Cl)cc1Cl (stereo not given)", 1.84),
    ("CCN(CC)c1ccc(N2CC=CC34O[C@@H]5/C=C\\CCCOC(=O)C5[C@H]3C(=O)N(CCCCCO)[C@@H]4C2=O)cc1 (stereo not given in full)", 0.0039),
    ("CC(C)(C)OC(=O)CC[C@]1(C(=O)O)COC(c2ccc(OCCCO)cc2)=N1", -0.0827),
    ("COC(=O)[C@@]1(Cc2ccc(OC)cc2)[C@H]2c3cc(C(=O)N(C)C)n(Cc4cc(C)n(C)n4)c3C[C@H]2CN1C(=O)c1ccccc1", 0.498),
    ("Cc1ccc(S[C@]2(C(=O)NCCN3CCOCC3)CC(=O)N(C3Cc4ccccc4C3)[C@@H]2c2ccc(CO)cc2)cc1", 0.0757),
    ("OCc1ccc(-c2cc[n+](Cc3cccc(OC(F)(F)F)c3)cc2)cc1", 0.409),
    ("C[C@]12C(=O)N(CCCCCO)[C@@H]3C(=O)N(c4ccc(Cl)cc4)CC=CC31O[C@@H]1/C=C\\CCCOC(=O)C12 (stereo not given in full)", -0.307),
    ("COc1cc(NN2C(C(O)c3ccc(I)cc3)C=CC3C(=O)N(C)C(=O)C32)cc(OC)c1OC (stereo not given)", 0.168),
]
